Record form. Attribute: growth. Fill in for each entry.
- System: SK-OV-3 ovarian
- method.notes: NCI-60 one-dose screen, 48 h (100 = growth as untreated, 0 = no growth, -100 = all killed)
- measurement.parameters: 10 µM unless noted
About 83,000 compounds went through this panel and 20% of them were active in at least one assay; those are over-represented in the sample as a whole.
Entry rule: numbers only, all in %.

### Prompt # query: growth of entry COc1ccc(-c2cc(-c3cc(OC)c(OC)c(OC)c3)c(C#N)c(=O)n2CCCCC(=O)NO)cc1
### Response 87.1

### Prompt # query: growth of entry NNc1nc(-c2cccnc2)nc2c1sc(=S)n2-c1ccccc1
### Response 79.6

### Prompt # query: growth of entry CN(C)c1ccc(-c2c(C#N)c(N)nn2C(=O)c2ccc(NC(=O)c3ccccn3)cc2)cc1
### Response 108

### Prompt # query: growth of entry NC(=O)c1c(NC(=O)c2ccc3ccccc3c2)sc2c1CCC(=O)C2
### Response 104

### Prompt # query: growth of entry Cc1[nH]c(C(=O)Nc2ccc(C(=O)N3CCN(c4cc5c(cc4F)c(=O)c(C(=O)O)cn5C4CC4)CC3)cc2OC(C)C)c(Cl)c1Cl
### Response 110
